From: patent US8691865B2

target: human Cav2.2 (Homo sapiens); assay: Assessment of calcium channel activity using FLIPR (Ca2+ influx in IMR32 cells); format: cell-based
Measurement Name: IC50 (nM)

1 = CC(C)CN[C@H]1CC[C@@H]2CN(c3cccc(C(F)(F)F)n3)C[C@@H]21
2 = O=C(N[C@H]1CC[C@@H]2CN(Cc3cccc(C(F)(F)F)c3)C[C@@H]21)C(C1CCCCC1)C1CCCCC1
3 = O=C(N[C@H]1CC[C@@H]2CN(c3cccc(C(F)(F)F)n3)C[C@@H]21)c1cc2occc2[nH]1
Input line: List by increasing IC50. Show the ranking through the labels, in the order asked for.
Output line: 2, 3, 1

P = O=C(CCC(F)(F)F)N[C@H]1CC[C@@H]2CN(c3cccc(C(F)(F)F)n3)C[C@@H]21
Q = CN[C@@H](CC(C)C)C(=O)N[C@H]1CC[C@@H]2CN(c3ccccc3OC(F)(F)F)C[C@@H]21
Input line: # argmax over IC50 for candidates P and Q Mark your answer with the label of the selected entry.
Output line: P
(P: 960 nM, Q: 650 nM)

* * *

biological target: human Cav2.2 (Homo sapiens); assay: Assessment of calcium channel activity using FLIPR (Ca2+ influx in IMR32 cells); type: cell-based
Measurement Name: IC50 (µM)

Input line: # query: IC50 | item O=C(N[C@H]1CC[C@@H]2CN(c3cccc(F)c3)C[C@@H]21)[C@@H]1C[C@@H](F)CN1 | system: human Cav2.2 (Homo sapiens)
Output line: 14.4

A = CC(C)C[C@H](O)C(=O)N[C@H]1CC[C@@H]2CN(c3cccc(C(F)(F)F)n3)C[C@@H]21
B = C[C@H](C(=O)N[C@H]1CC[C@H]2CN(Cc3ccccc3)C[C@H]21)c1cccc(C(=O)c2ccccc2)c1 (relative stereo)
Input line: # argmax over IC50 for candidates A and B Mark your answer with the label of the selected entry.
Output line: B

I = CN[C@@H](CC(C)C)C(=O)N[C@H]1CC[C@@H]2CN(c3ccc(Cl)cc3)C[C@@H]21
II = O=S(=O)(N[C@@H]1CC[C@H]2CN(CCC(c3ccc(F)cc3)c3ccc(F)cc3)C[C@H]21)c1cccc(C(F)(F)F)c1
Input line: # argmax over IC50 for candidates I and II Mark your answer with the label of the selected entry.
Output line: I

a = FC(F)(F)c1cccc(N2C[C@H]3CC[C@H](NCc4c[nH]nc4-c4ccccc4)[C@H]3C2)n1
b = CCC[C@@H](C(=O)N[C@H]1CC[C@@H]2CN(S(=O)(=O)c3cccs3)C[C@@H]21)N(C)C(=O)OC(C)(C)C
c = CCCC[C@H](NC)C(=O)N[C@H]1CC[C@@H]2CN(c3cccc(C(F)(F)F)n3)C[C@@H]21
Input line: Output the entries ranked by IC50 from maximum down to minimum. Show the ranking through the labels, in the order asked for.
Output line: b, a, c

* * *

target: human Cav2.2 (Homo sapiens, UniProt Q00975); experiment: Assessment of calcium channel activity using FLIPR (Ca2+ influx in IMR32 cells); format: cell-based
Sequence (Q00975 whole entry): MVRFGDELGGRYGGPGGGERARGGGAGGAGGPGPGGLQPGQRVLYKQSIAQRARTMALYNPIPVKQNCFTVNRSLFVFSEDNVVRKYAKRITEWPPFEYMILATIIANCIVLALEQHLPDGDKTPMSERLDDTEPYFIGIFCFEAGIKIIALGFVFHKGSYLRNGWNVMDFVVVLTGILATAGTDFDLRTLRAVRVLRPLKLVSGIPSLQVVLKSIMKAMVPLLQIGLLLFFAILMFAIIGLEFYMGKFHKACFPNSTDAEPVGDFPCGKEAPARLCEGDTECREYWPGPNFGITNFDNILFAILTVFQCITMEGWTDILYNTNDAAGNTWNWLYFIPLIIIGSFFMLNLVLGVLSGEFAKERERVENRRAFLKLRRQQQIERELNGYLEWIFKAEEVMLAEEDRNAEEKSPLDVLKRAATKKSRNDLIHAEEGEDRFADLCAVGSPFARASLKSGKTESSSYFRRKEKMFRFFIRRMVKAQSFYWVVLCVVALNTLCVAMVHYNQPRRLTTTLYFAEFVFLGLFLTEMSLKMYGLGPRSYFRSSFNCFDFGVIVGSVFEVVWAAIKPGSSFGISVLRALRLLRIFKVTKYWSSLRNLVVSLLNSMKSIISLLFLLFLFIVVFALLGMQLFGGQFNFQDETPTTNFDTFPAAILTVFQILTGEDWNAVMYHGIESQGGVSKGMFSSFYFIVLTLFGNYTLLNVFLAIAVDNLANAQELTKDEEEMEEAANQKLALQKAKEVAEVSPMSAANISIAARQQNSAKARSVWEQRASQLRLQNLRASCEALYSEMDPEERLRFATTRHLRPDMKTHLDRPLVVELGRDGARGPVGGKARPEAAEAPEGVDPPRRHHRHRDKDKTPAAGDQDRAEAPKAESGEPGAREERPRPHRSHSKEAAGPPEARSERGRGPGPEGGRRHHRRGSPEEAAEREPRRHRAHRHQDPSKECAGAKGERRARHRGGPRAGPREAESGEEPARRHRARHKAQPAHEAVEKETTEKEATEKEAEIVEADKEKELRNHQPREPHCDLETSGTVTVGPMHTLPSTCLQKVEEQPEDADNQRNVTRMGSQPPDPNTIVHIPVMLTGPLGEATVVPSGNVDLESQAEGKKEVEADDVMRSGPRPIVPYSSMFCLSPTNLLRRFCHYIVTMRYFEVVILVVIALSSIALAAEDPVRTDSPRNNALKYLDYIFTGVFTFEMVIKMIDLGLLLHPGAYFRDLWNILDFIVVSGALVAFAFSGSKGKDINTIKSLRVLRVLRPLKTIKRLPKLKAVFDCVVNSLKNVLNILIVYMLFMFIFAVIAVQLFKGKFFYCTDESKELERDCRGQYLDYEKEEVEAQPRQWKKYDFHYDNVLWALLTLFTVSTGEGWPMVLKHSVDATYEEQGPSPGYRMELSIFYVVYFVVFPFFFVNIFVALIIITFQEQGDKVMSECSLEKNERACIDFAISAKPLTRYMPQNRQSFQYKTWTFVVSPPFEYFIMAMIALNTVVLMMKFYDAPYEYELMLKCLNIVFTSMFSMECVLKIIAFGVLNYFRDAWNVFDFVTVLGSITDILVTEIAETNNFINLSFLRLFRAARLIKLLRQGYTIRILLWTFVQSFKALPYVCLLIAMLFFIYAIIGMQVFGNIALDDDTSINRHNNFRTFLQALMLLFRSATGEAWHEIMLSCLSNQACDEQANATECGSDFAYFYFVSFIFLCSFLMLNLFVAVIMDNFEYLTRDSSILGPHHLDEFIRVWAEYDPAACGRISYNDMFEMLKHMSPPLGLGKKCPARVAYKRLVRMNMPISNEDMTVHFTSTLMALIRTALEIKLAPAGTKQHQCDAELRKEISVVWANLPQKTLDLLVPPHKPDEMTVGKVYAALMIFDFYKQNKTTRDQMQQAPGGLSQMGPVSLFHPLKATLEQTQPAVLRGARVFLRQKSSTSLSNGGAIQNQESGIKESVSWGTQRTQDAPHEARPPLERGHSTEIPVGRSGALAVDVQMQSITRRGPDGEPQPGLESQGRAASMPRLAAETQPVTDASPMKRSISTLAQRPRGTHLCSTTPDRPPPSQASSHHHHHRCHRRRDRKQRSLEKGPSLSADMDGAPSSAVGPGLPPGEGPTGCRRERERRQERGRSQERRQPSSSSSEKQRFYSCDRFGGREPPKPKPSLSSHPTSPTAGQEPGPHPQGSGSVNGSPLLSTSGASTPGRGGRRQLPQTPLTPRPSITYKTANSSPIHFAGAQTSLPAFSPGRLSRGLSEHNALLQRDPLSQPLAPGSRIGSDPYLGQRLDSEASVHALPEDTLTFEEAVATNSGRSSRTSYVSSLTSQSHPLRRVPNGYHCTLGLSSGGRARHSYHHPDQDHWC
Sequence (P54289 25-956 partner limits assumed): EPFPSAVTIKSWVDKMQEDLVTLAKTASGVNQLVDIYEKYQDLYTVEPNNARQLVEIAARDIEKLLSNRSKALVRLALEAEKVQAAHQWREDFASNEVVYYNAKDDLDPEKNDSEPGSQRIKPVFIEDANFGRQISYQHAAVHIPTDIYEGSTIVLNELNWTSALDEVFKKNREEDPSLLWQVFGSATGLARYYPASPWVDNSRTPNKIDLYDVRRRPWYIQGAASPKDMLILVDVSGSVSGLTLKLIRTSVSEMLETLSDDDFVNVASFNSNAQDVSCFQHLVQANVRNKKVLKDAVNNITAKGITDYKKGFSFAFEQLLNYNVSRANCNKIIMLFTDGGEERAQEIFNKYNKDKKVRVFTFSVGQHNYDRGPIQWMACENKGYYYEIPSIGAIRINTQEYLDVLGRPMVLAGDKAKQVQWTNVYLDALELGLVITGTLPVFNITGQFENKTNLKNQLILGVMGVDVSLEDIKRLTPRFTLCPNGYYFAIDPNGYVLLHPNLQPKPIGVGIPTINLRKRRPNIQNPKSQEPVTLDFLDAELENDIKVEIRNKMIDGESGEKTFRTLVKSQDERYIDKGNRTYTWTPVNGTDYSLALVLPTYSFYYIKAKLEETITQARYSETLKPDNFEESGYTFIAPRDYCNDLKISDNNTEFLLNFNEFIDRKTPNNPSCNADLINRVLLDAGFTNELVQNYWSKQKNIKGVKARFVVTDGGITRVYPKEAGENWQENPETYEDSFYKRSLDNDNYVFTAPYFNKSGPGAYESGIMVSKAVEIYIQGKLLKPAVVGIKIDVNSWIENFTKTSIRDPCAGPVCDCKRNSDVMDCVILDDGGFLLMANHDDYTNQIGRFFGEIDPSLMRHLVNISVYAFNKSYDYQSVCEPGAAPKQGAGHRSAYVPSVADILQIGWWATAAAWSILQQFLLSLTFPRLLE
Sequence (P54289 957-1103 partner limits assumed): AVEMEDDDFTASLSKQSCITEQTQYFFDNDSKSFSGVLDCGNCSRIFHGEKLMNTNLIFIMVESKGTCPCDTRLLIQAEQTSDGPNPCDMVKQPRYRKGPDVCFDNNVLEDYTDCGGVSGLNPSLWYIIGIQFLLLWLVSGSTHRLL
Sequence (P54284 whole entry partner): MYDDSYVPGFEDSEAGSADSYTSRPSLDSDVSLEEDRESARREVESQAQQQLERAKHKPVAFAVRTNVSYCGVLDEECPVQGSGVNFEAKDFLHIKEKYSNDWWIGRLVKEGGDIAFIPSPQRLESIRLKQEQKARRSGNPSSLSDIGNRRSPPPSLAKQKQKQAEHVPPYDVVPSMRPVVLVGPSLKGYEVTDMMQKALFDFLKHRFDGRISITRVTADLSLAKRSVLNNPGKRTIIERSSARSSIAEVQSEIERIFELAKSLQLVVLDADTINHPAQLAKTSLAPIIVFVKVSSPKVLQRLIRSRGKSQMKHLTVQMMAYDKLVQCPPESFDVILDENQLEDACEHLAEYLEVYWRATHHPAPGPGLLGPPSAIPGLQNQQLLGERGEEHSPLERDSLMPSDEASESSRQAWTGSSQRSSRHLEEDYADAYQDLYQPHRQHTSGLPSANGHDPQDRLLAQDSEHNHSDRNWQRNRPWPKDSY
Measurement Name: IC50 (nM)

Input line: Any idea what IC50 was measured for FC(F)(F)c1cccc(N2C[C@H]3CC[C@H](NCc4c[nH]c(-c5ccccc5)n4)[C@H]3C2)n1 ?
Output line: 1030

P = CN[C@H](C(=O)N[C@H]1CC[C@@H]2CN(S(=O)(=O)c3cccc(C(F)(F)F)c3)C[C@@H]21)C(C)C
Q = O=S(=O)(N[C@H]1CC[C@@H]2CN(c3cccc(C(F)(F)F)n3)C[C@@H]21)c1ccc(F)c(Cl)c1
Input line: # argmax over IC50 for candidates P and Q Mark your answer with the label of the selected entry.
Output line: Q
(Q: 5560 nM, P: 1480 nM)
